# EXPERIMENTAL TARGET: DCN1 (DCUND1) protein PONY domain (Homo sapiens (Human))
# Sequence (Q96GG9 60-248): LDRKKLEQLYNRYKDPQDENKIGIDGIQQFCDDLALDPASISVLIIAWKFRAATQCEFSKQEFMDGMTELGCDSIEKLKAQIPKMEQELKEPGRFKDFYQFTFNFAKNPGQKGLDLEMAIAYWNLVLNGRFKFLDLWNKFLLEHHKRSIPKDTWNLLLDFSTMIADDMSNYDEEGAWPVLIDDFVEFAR
# ASSAY: Off-rate measurement of reversible covalent molecules (jump dilution TR-FRET with Cy5 probe)
# Type: binding
# CONDITION NOTES: binding mode category from off-rate assay
TEST READOUT: Category

Use these answered entries as a reference point.
CCN1C(=O)[C@@H](NC(=O)c2cccc(C(F)(F)F)c2)[C@@H](C2CC2)c2c(C(=O)N3CS(=O)(=O)C[C@H]3C#N)nn(C3CCOCC3)c21 : fast reversible
CCN1C(=O)[C@@H](NC(=O)c2cccc(C(F)(F)F)c2)[C@@H](c2ccc(F)cc2)c2c(C(=O)N3CCNC[C@H]3C#N)nn(C3CCOCC3)c21 : slow reversible
CCN1C(=O)[C@@H](NC(=O)c2cccc(C(F)(F)F)c2)[C@@H](C2CC2)c2c(C(=O)N3C[C@H](NC)C[C@H]3C#N)nn(C3CCOCC3)c21 : fast reversible
CCN1C(=O)[C@@H](NC(=O)c2cccc(C(F)(F)F)c2)[C@@H](c2ccc(F)cc2)c2c(C(=O)N3CCS(=O)(=O)C[C@H]3C#N)nn(C3CCOCC3)c21 (mixture of isomers) : reversible covalent
CCN1C(=O)[C@@H](NC(=O)c2cccc(C(F)(F)F)c2)[C@@H](c2ccc(F)cc2)c2c(C(=O)N(C)[C@H](C#N)CCN(C)C)nn(C3CCOCC3)c21 : fast reversible
CCN1C(=O)[C@@H](NC(=O)c2cccc(C(F)(F)F)c2)[C@@H](C2CC2)c2c(C(=O)N3CC[C@H]3C#N)nn(C3CCOCC3)c21 : reversible covalent

Query: Report measured Category; entry is CCN1C(=O)[C@@H](NC(=O)c2cccc(C(F)(F)F)c2)[C@@H](c2ccc(F)cc2)c2c(C(=O)N(C)[C@@H](C#N)CCN(C)C)nn(C3CCOCC3)c21
Result: fast reversible
